TARGET ENTITY: DNA polymerase III subunit alpha (Escherichia coli K-12, UniProt P10443)
Sequence (P10443 whole entry): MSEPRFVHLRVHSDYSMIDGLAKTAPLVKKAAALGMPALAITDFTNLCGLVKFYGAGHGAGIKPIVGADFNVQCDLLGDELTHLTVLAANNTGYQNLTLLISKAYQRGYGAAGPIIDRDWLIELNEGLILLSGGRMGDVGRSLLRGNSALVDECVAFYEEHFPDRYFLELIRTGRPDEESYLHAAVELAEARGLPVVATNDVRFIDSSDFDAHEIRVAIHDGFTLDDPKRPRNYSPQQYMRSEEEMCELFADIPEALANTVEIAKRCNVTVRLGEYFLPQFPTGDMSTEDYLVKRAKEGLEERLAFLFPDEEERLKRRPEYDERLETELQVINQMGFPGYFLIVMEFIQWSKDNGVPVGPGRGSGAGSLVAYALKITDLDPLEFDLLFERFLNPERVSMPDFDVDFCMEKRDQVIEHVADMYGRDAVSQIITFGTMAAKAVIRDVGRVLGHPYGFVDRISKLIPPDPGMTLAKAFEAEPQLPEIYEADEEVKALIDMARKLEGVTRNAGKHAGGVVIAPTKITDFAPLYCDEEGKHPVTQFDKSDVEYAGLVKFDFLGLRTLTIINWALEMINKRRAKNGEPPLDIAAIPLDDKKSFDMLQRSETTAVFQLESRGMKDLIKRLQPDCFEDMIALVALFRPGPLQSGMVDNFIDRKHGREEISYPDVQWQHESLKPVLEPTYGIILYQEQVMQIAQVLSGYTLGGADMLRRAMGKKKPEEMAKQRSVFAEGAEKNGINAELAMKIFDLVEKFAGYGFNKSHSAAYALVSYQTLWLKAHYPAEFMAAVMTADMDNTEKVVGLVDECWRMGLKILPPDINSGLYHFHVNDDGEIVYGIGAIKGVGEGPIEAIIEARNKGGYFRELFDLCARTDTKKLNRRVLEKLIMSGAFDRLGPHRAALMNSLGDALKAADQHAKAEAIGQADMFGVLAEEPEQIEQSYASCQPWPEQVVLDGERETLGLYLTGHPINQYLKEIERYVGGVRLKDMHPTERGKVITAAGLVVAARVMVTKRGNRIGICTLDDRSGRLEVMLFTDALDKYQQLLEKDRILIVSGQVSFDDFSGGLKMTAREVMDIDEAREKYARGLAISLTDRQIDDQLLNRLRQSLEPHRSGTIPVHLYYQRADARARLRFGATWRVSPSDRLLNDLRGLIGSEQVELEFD
ASSAY: Inhibitory constant against DNA polymerases IIIE from Escherichia coli; (a)
ATTRIBUTE MEASURED: Ki

> print(dat)
                            smiles.text                             target.entity  attribute.measured  reported.value
1  CCc1cc(Nc2cc(=O)[nH]c(=O)[nH]2)ccc1C  DNA polymerase III subunit alpha (Escherichia coli K-12, UniProt P10443)                  Ki        > 323 µM

###

TARGET ENTITY: DNA polymerase III PolC-type (Bacillus subtilis (strain 168), UniProt P13267)
Sequence (P13267 whole entry): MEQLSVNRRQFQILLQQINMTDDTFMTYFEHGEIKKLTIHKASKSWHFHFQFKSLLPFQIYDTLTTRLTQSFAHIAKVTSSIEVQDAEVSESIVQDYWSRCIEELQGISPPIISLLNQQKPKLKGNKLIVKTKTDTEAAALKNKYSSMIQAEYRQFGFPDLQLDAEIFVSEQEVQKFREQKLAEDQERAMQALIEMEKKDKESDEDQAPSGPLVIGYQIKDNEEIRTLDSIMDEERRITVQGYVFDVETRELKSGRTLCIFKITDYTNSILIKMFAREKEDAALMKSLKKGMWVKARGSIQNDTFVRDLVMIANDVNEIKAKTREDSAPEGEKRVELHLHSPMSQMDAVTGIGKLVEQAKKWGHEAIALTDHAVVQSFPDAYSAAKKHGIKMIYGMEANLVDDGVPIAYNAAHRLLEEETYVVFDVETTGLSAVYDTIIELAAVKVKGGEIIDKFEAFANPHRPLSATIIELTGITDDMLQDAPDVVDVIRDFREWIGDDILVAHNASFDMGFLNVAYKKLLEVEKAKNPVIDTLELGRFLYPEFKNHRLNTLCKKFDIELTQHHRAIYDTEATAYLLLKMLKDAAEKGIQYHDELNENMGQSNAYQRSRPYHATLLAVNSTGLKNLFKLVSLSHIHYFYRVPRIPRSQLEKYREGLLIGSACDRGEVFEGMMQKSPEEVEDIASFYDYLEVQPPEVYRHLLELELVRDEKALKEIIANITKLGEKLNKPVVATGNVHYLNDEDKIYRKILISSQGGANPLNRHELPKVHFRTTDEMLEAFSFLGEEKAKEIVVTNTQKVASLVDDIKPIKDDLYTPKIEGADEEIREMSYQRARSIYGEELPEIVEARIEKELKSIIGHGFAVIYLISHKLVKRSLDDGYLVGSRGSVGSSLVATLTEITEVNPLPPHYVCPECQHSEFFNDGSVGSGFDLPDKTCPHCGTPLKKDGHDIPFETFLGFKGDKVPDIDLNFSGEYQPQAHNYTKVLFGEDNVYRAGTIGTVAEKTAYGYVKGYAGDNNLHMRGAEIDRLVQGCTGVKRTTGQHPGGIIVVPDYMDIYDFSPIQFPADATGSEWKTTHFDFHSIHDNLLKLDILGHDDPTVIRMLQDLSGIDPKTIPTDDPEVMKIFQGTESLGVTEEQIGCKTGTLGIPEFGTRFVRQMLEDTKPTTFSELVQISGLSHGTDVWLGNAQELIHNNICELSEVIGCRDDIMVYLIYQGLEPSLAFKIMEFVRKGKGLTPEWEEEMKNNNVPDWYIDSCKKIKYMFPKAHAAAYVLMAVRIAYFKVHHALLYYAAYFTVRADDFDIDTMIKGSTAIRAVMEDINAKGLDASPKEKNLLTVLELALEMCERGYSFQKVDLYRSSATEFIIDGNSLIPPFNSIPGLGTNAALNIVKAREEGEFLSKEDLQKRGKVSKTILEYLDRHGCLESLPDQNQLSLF
ASSAY: Inhibitory constant against DNA polymerases IIIC produced by Bacillus subtilis; (a)
pKi: −log10 of the molar value.
# key: entry, value: pKi
ATTRIBUTE MEASURED: pKi

> print(dat)
                                    molecule  reported.value
 1  O=c1cc(NCc2ccc(Cl)c(CCl)c2)[nH]c(=O)[nH]1            6.38
 2  CCOC(=O)CCCn1cnc2c(O)nc(NCc3ccc(Cl)c(Cl)c3)nc21            3.08
 3  O=c1[nH]c(NCc2ccc(Cl)c(Cl)c2)nc2ncn(CCOCCO)c12            6.43
 4  CCOC(=O)CCCn1cnc2nc(NCc3ccc(Cl)c(Cl)c3)[nH]c(=O)c21            6.82
 5  OCCCCn1cnc2c(O)nc(NCc3ccc(Cl)c(Cl)c3)nc21            3.15
 6         CCc1cc(Nc2nc(O)c3[nH]cnc3n2)ccc1C            5.57
 7  CSCCCCCn1cnc2nc(NCc3ccc(Cl)c(Cl)c3)[nH]c(=O)c21            6.64
 8  COCCCCCn1cnc2nc(NCc3ccc(Cl)c(Cl)c3)[nH]c(=O)c21            7.15
 9  CCOCCn1cnc2c(=O)[nH]c(NCc3ccc(Cl)c(Cl)c3)nc21            3.94
10  O=C(O)CCCn1cnc2nc(NCc3ccc(Cl)c(Cl)c3)nc(O)c21            6.77
11      CCc1cc(Nc2cc(=O)[nH]c(=O)[nH]2)ccc1C            6.51
12  O=C(O)CCCn1cnc2c(=O)[nH]c(NCc3ccc(Cl)c(Cl)c3)nc21            4.55
13  CC(C)C(=O)OCCCCCn1cnc2nc(NCc3ccc(Cl)c(Cl)c3)[nH]c(=O)c21            6.43
14  CC(=O)O[C@H](C)CCCCn1cnc2nc(NCc3ccc(Cl)c(Cl)c3)[nH]c(=O)c21            7.10
15  CCOCCn1cnc2nc(NCc3ccc(Cl)c(Cl)c3)[nH]c(=O)c21            6.48
16  C[S+]([O-])CCCCCn1cnc2nc(NCc3ccc(Cl)c(Cl)c3)nc(O)c21 (centres undefined)            7.03
17  CS(=O)(=O)CCCCCn1cnc2nc(NCc3ccc(Cl)c(Cl)c3)nc(O)c21            6.55
18  C[C@@H](O)CCCCn1cnc2nc(NCc3ccc(Cl)c(Cl)c3)[nH]c(=O)c21            7.28
19    Oc1[nH]c(NCc2ccc(Cl)c(Cl)c2)nc2ncnc1-2            6.14
